Tested on: HEK-293T
Assay: Multiplex assay against HEK293T
Format: toxicity, cell-based
Conditions: human, 48 h, 10 µM, compound concentration 10 uM, replicate 2
Binary classification by Total Cell Count, with 300 as an inclusive lower bound for YES; all other cases are NO.

For this molecule, is measured Total Cell Count 300 or higher? CC(Cc1ccc(O)c(O)c1)C(C)Cc1ccc(O)c(O)c1 (stereo not drawn) [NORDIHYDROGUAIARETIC ACID]
NO

What would you report for c1ccc(-c2oc3ncnc(NC[C@@H]4CCCO4)c3c2-c2ccccc2)cc1 ?
NO

Input CC(C)C[C@H](NC(=O)[C@H](Cc1ccccc1)NC(=O)CNC(=O)CNC(=O)[C@@H](N)Cc1ccc(O)cc1)C(=O)O
YES

What would you report for Oc1cccc(-c2nc(N3CCOCC3)c3oc4ncccc4c3n2)c1 ?
NO

// repeat for CCCCCNC(=N)N/N=C/c1c[nH]c2ccc(OC)cc12.O=C(O)/C=C\C(=O)O [TEGASEROD MALEATE] and report
NO

Record: N#Cc1cccc(C(=O)Nc2cc(-c3ccccc3)nn2-c2ccccc2)c1
NO

Try Cc1c(Nc2ccc(S(=O)(=O)N3CCN(C)CC3)cc2F)nc2ccc(-c3cnn(C4CC4)c3)cn2c1=O next.
YES

Further, for CC(C)c1cc(Nc2nc(N3CCC[C@H](N)C3)ncc2C(N)=O)cc(C(C)C)n1 ?
NO

Moving on to the next molecule: CN1C(=O)[C@@H](NC(=O)c2cc3ccccc3[nH]2)N=C(c2ccccc2)c2ccccc21 [DEVAZEPIDE]
NO

Subsequent entry: CN(c1cc(C(F)(F)F)nc(OCCC(=O)O)n1)c1cccc2c1CCC2
YES

What do we get for CC(C)[C@H](CO)Nc1nc(Nc2cccc(Cl)c2)c2ncn(C(C)C)c2n1 ?
NO

Continue with N#CCNC(=O)c1ccc(-c2ccnc(Nc3ccc(N4CCOCC4)cc3)n2)cc1
NO

Record: CCCCN(CC)c1nc(C)nc2c1c(C)cn2-c1c(C)cc(C)cc1C.Cl
YES

Same read-out for CC(/C=C1\SC(=S)N(CCCC(=O)Nc2ccc(C(=O)O)c(O)c2)C1=O)=C\c1ccccc1 ?
YES

Please give the result for C=CC(=O)Nc1cc(-n2c(=O)ccc3cnc4ccc(-c5ccc(NS(C)(=O)=O)cc5)cc4c32)ccc1C too.
YES

And C[C@@H](Oc1cc(-n2cnc3ccc(CN4CCN(C)CC4)cc32)sc1C(N)=O)c1ccccc1C(F)(F)F ?
NO

Repeat with Cc1c(P(=S)(c2ccccc2)c2ccccc2)n2ccccc2[n+]1C/C=C/c1ccccc1.[Br-]
NO

Now give it for Cc1ccc(S(=O)(=O)NC2c3ccccc3Oc3ccccc32)cc1 too.
YES

###

System: U2OS
Test: Multiplex assay against U2OS
Format: toxicity, cell-based
Details: human, 12 h, 10 µM, compound concentration 10 uM, replicate 2
Quantity Measured: Population Mitotic Cells (%)
The reply should contain only the number, in %.

Query (compound): CC(Cc1ccc(O)c(O)c1)C(C)Cc1ccc(O)c(O)c1 (stereo not given) [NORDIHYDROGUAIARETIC ACID] ; field requested: Population Mitotic Cells (%)
100

How about CC[C@@H]1C(=O)N(C)c2cnc(Nc3ccc(C(=O)NC4CCN(C)CC4)cc3OC)nc2N1C1CCCC1 ?
18

Moving on to COc1cc(C)c(Sc2cnc(NC(=O)c3ccc(CNC(C)C(C)(C)C)cc3)s2)cc1C(=O)N1CCN(C(C)=O)CC1 (stereo not given)
100

How about this compound: N#CCNC(=O)c1ccc(-c2ccnc(Nc3ccc(N4CCOCC4)cc3)n2)cc1
86

Now consider Cc1c(P(=S)(c2ccccc2)c2ccccc2)n2ccccc2[n+]1C/C=C/c1ccccc1.[Br-] and answer again.
5

###

Tested on: Fibroblast
Assay: Multiplex assay against human fibroblast
Assay type: toxicity, cell-based
Settings: 24 h, 10 µM, compound concentration 10 uM, replicate 1
Quantity Measured: Total Cell Count

What value of Total Cell Count has been reported for the following compound? Cc1ccc(NC(=O)Nc2cc(C(F)(F)F)ccc2F)cc1Nc1ccc2c(c1)NC(=O)/C2=C\c1ccc[nH]1
237

And the next one, Cc1c(P(=S)(c2ccccc2)c2ccccc2)n2ccccc2[n+]1C/C=C/c1ccccc1.[Br-] ?
138

Ok, now CC(C)C[C@H](NC(=O)[C@H](Cc1ccccc1)NC(=O)CNC(=O)CNC(=O)[C@@H](N)Cc1ccc(O)cc1)C(=O)O [ENKEPHALIN]
129

Can you check CC(/C=C1\SC(=S)N(CCCC(=O)Nc2ccc(C(=O)O)c(O)c2)C1=O)=C\c1ccccc1 next?
326

Same thing, different compound: NC(=O)c1ccc2nc(-c3ccc(C4(N)CCC4)cc3)c(-c3ccccc3)n2n1 [BAY-1125976]
192

Request: CN(c1cc(C(F)(F)F)nc(OCCC(=O)O)n1)c1cccc2c1CCC2
198

Now try C=CC(=O)Nc1cc(-n2c(=O)ccc3cnc4ccc(-c5ccc(NS(C)(=O)=O)cc5)cc4c32)ccc1C .
141

Continue with Cl.NC[C@@H]1O[C@H](C23CC4CC(CC(C4)C2)C3)Cc2c1ccc(O)c2O
181

###

System: U2OS
Assay: Multiplex assay against U2OS
Assay type: toxicity, cell-based
Conditions: human, 24 h, 1 µM, compound concentration 1 uM, replicate 1
Quantity Measured: Population Hoechst High Intensity Objects (%)
Dear colleague, please send the value followed by its unit.

// Population Hoechst High Intensity Objects (%) lookup, key: Cc1c(P(=S)(c2ccccc2)c2ccccc2)n2ccccc2[n+]1C/C=C/c1ccccc1.[Br-]
5%

Now try Cc1ccc(S(=O)(=O)NC2c3ccccc3Oc3ccccc32)cc1 .
0%

Would you mind doing CCCc1cc(C)[nH]c(=O)c1CNC(=O)c1cc(-c2ccc(N3CCN(C(C)C)CC3)nc2)cc2c1cnn2C(C)C as well?
13%

Same question for Cc1c(Nc2ccc(S(=O)(=O)N3CCN(C)CC3)cc2F)nc2ccc(-c3cnn(C4CC4)c3)cn2c1=O please.
1%

Try CN1C(=O)[C@@H](NC(=O)c2cc3ccccc3[nH]2)N=C(c2ccccc2)c2ccccc21 [DEVAZEPIDE] next.
5%

Another compound to check: Oc1cccc(-c2nc(N3CCOCC3)c3oc4ncccc4c3n2)c1
8%

Note, next up: C[C@@H](Oc1cc(-n2cnc3ccc(CN4CCN(C)CC4)cc32)sc1C(N)=O)c1ccccc1C(F)(F)F
6%

Another compound: CCOC(=O)CCNc1cc(N2CCc3ccccc3CC2)nc(-c2ccccn2)n1
1%

Now consider CN(c1cc(C(F)(F)F)nc(OCCC(=O)O)n1)c1cccc2c1CCC2 .
7%

###

Test system: HEK-293T
Test: Multiplex assay against HEK293T
Type: toxicity, cell-based
Conditions: human, 24 h, 10 µM, compound concentration 10 uM, replicate 1
Note to self: Population Mitochondria Different-Phenotype (%) under 90% means Condition met, ties and anything higher get Condition not met.

I'd appreciate it if you could check whether CC(C)c1cc(Nc2nc(N3CCC[C@H](N)C3)ncc2C(N)=O)cc(C(C)C)n1 has Population Mitochondria Different-Phenotype (%) smaller than 90%.
Condition not met

Another molecule to check: CC(Cc1ccc(O)c(O)c1)C(C)Cc1ccc(O)c(O)c1 (centres undefined) [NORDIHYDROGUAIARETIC ACID]
Condition met

# iterate: Cc1ccc(NC(=O)Nc2cc(C(F)(F)F)ccc2F)cc1Nc1ccc2c(c1)NC(=O)/C2=C\c1ccc[nH]1
Condition met

Moving on to CCCCN(CC)c1nc(C)nc2c1c(C)cn2-c1c(C)cc(C)cc1C.Cl
Condition not met

What do you get for C=CC(=O)Nc1cc(-n2c(=O)ccc3cnc4ccc(-c5ccc(NS(C)(=O)=O)cc5)cc4c32)ccc1C ?
Condition met

Next record, please: c1ccc(-c2oc3ncnc(NC[C@@H]4CCCO4)c3c2-c2ccccc2)cc1
Condition not met

Next entry: CC(/C=C1\SC(=S)N(CCCC(=O)Nc2ccc(C(=O)O)c(O)c2)C1=O)=C\c1ccccc1
Condition met

Next molecule up: Cl.Cn1c2c(c3ccc(Cl)c(Cl)c31)C(C#N)C1(CCNCC1)NC2=O (centres undefined)
Condition met

###

Test system: U2OS
Experiment: Multiplex assay against U2OS
Type: toxicity, cell-based
Details: human, 12 h, 10 µM, compound concentration 10 uM, replicate 2
Quantity Measured: Population Mitochondria Different-Phenotype (%)
Respond numerically; units are % and should not be typed.

Record lookup: for U2OS, what Population Mitochondria Different-Phenotype (%) belongs to CC(Cc1ccc(O)c(O)c1)C(C)Cc1ccc(O)c(O)c1 (centres undefined) [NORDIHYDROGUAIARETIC ACID] ?
10

Now consider Cl.NC[C@@H]1O[C@H](C23CC4CC(CC(C4)C2)C3)Cc2c1ccc(O)c2O and answer again.
22

Do the same for Cc1ccc(S(=O)(=O)NC2c3ccccc3Oc3ccccc32)cc1 please
0

Same again, this time with Oc1cccc(-c2nc(N3CCOCC3)c3oc4ncccc4c3n2)c1 [PI-103]
59

Same again, this time with CC(/C=C1\SC(=S)N(CCCC(=O)Nc2ccc(C(=O)O)c(O)c2)C1=O)=C\c1ccccc1
6

Do the same for CC[C@@]1(O)C(=O)OCc2c1cc1n(c2=O)Cc2cc3ccccc3nc2-1 [CAMPTOTHECIN] please
32

Subsequent entry: CN(c1cc(C(F)(F)F)nc(OCCC(=O)O)n1)c1cccc2c1CCC2
10

Try this molecule next: N#CCNC(=O)c1ccc(-c2ccnc(Nc3ccc(N4CCOCC4)cc3)n2)cc1 [MOMELOTINIB]
6

Check CCCc1cc(C)[nH]c(=O)c1CNC(=O)c1cc(-c2ccc(N3CCN(C(C)C)CC3)nc2)cc2c1cnn2C(C)C too.
100
